Source listed as patent US20230416329A1.

- measuredOn: T1, porcine pancreatic elastase (porcine, UniProt P00772 27-266)
- T1 construct: substrate AAApNA
- procedureDetails: elastase inhibition, Ki=IC50/(1+S/Km)
Bridge positions count the residues as written; N and C are the ends. Square brackets hold non-standard residues; d marks the D form. Ends that are not written are not given here. Hyp = O=C(O)[C@@H]1C[C@@H](O)CN1; Nle = CCCC[C@H](N)C(=O)O
readout: Ki (µM)
Only the number, expressed in µM, is required.

Answer with the recorded Ki for the binder listed here: ICTASI[Hyp]PICQ (disulfide 2-10 (inferred), disulfide bond between the two Cys) [EC47] 0.11

Report measured Ki; entry is CGI[Nle]TASIPPICQ (disulfide 1-12 (inferred), disulfide bond between the two Cys) [EC32] 6.11

Provide Ki value for the following binder: CGLATLSIPPICQ (disulfide 1-12 (inferred), disulfide bond between the two Cys) [EC7] 9.62
